# assayText: basal RPMI8226 mitochondrial membrane potential changes, profiling panel, cell-based, JC-1 fluorescence, 24 h, 100 nL compound (AID 1169); further: test concentration not given here
# settings: RPMI8226 myeloma, JC-1 mitochondrial potential fluorescence, higher = more signal
# z-score per entry

| molecule | z-score |
| --- | --- |
| COC(=O)[C@@]1(Cc2ccc(OC)cc2)[C@H]2c3cc(C(=O)N(C)C)n(Cc4c(CO)[nH]cc(C)c4=O)c3C[C@H]2CN1C(=O)c1ccccc1 | -0.0347 |
| C[N+](C)(C)CCCC[C@@H]1NC(=O)[C@H]2C[C@@H](C(=O)NCCCCCN)[C@@H](c3ccc(O)cc3)N2C1=O | 0.144 |
| COc1ccc(-c2cc3c(c(CCc4ccccc4)n2)[Si](C(C)C)(C(C)C)O[C@H]3c2ccccc2)cn1 | -0.405 |
| CC[C@@H]1C=C(C(=O)O)[C@H](c2cccc(Cl)c2)N1S(=O)(=O)c1ccc(C)cc1 | -0.623 |
| CCc1cccc(NC(=O)O[C@H]2[C@H](OC(=O)Nc3ccccc3-c3ccccc3)[C@H](OC(=O)Nc3ccccc3-c3ccccc3)[C@@H](OC)O[C@@H]2CO)c1 | -0.841 |
| COC(=O)C1=CC(CCCO)=CC(c2ccc(CN3CCCC3)cc2)N(C)C=C1C(=O)OC (stereo not given) | 0.173 |
| C=CC[C@@]1(C(=O)NCCCOC)N=C(c2ccc(OCCCO)cc2)O[C@@H]1c1ccccc1CN=[N+]=[N-] | -0.728 |
| C=C(CCCC)/C(=C/C[C@@H](OC(C)=O)c1cccc(OCCO)c1)c1cc(C(=O)OC)ccc1OC | 0.186 |
| O=C1N(Cc2ccccc2)Cc2ccccc2C[C@@]12COC(c1ccc(OCCCO)cc1)=N2 | -1.18 |
| COCCOC(=O)N1C(=O)[C@@]2(c3cc(C#CCNC(N)=O)ccc31)[C@H](c1ccccc1OCCO)N1[C@H](c3ccccc3)[C@H](c3ccccc3)OC(=O)[C@H]1[C@@H]2C(=O)N1CCCCCCC1 | -0.441 |
| O=C1OC[C@@H](c2ccccc2)n2cc(/C=C/c3ccccc3)cc21 | -0.161 |
| C[N+](C)(C)CCCC[C@@H]1NC(=O)[C@H]2C[C@@H](C(=O)O)[C@@H](c3ccc(O)cc3)N2C1=O | -0.2 |
| CN1C(=O)C2C=CC(C(O)c3cccs3)N(N(c3ccccc3)c3ccccc3)C2C1=O (stereo not given) | -0.24 |
| C=CCNC(=O)[C@H]1[C@@H]2C(=O)O[C@@H](c3ccccc3)[C@@H](c3ccccc3)N2[C@@H](c2ccc(OCCO)cc2)[C@]12C(=O)N(C(=O)OCCOC)c1ccc(C#CCNC(N)=O)cc12 | -0.596 |
| CCCNC(=O)[C@@]1(Sc2ccc(C)cc2)CC(=O)N(Cc2cc(C(F)(F)F)cc(C(F)(F)F)c2)[C@@H]1c1ccc(CO)cc1 | 0.293 |
| COC(=O)[C@@]1(Cc2ccc(F)cc2)[C@H]2c3cc(C(=O)N(C)C)n(CCF)c3C[C@H]2CN1C(=O)c1ccccc1 | -0.37 |
| O=C1O[C@H](c2ccccc2)[C@H](c2ccccc2)N2[C@H]1[C@@H](C(=O)N1CCN(c3ncccn3)CC1)[C@]1(C(=O)Nc3ccc(C#CC4(O)CCCCCC4)cc31)[C@H]2c1ccc(O)cc1 | -0.259 |
| Cc1ccc(N2C(=O)c3ccccc3[C@@H](C(=O)NCCN3CCOCC3)[C@@H]2c2ccc(CO)cc2)nc1 | -0.171 |
| CCOC(=O)C[C@H]1[C@H](OC(=O)c2ccc(-c3ccccc3)cc2)[C@@H](NC(=O)C2CCCCC2)c2cc(OCCCO)ccc2N1C(=O)Cc1ccc(OC)cc1 | 0.823 |
| COCCOC(=O)N1C(=O)[C@@]2(c3cc(C#CCC(C(=O)OC)C(=O)OC)ccc31)[C@H](C(N)=O)[C@H]1C(=O)O[C@H](c3ccccc3)[C@H](c3ccccc3)N1[C@@H]2c1ccccc1OCCO | -0.79 |
